// provenance: patent US20150218281A1

Target: T1, recombinant human OX40L (extracellular domain, R&D Systems) (human, UniProt P23510 51-183)
T1 construct: also called hOX40L; rec. hOX40L
T1 sequence: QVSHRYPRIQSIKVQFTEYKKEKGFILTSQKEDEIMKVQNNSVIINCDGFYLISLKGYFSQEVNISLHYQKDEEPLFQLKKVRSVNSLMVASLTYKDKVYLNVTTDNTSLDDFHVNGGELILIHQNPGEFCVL
Assay: SPR, second injection after competitor OX40L01B11
test.readout: Binding Level sample 2 (RU)
# number only, unit RU dropped from output

binder	obs.value
OX40L01E10 (VHH, monovalent Nanobody from E. coli; not shown: C-terminal c-myc and His6 tag) VHH: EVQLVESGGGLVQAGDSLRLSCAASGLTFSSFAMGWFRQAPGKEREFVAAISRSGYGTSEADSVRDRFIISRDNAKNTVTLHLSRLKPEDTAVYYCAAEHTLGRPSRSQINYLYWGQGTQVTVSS	342
OX40L01B11 (VHH, monovalent Nanobody from E. coli; not shown: C-terminal c-myc and His6 tag) VHH: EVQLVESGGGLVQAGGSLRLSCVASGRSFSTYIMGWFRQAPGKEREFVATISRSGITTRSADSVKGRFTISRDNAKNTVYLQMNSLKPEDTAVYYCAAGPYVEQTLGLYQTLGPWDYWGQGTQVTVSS	380
OX40L01E07 (VHH, monovalent Nanobody from E. coli; not shown: C-terminal c-myc and His6 tag) VHH: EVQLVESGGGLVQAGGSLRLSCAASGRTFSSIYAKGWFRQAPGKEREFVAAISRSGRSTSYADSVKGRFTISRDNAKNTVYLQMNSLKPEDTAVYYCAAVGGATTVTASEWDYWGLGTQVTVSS	486

Next item in the queue.
If you can, please state the reported Binding Level sample 2 (RU) value of OX40L19D08 (VHH, monovalent Nanobody from E. coli; not shown: C-terminal c-myc and His6 tag) VHH: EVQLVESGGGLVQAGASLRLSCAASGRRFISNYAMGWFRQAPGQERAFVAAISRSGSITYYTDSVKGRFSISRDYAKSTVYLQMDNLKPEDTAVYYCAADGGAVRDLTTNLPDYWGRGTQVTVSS .
468
